The values you see were collected from PubChem BioAssay AID1159580.

# Test name: chemical genetic growth profiling, strain panel (AID 1159580);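 note: tested at 20 µM; growth read once vehicle control cultures reached saturation at 30 °C; 1 = growth at the plate median or of vehicle wells; lower values mean less growth of the strain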
# Condition summary: S. cerevisiae deletion strains, growth OD, locus YNL183C, strain NPR1, hits give low values
The whole screen tested about 5,500 compounds, of which about 2,000 (36%) were called active. Inconclusive results (about 18%) are left out. Some of the results follow.
Measured property: normalized growth
One number for each entry.

[ask] What value of normalized growth has been recorded for this entry: C=CCc1ccccc1OCC(O)CNC(C)C (centres undefined)
[reply] 0.924

[ask] # input compound: N=c1ccc2nc3c(Cl)c4c(c(Cl)c3oc-2c1S(=O)(=O)O)Nc1ccc(N)c(S(=O)(=O)O)c1O4 ; wanted: its normalized growth
[reply] 1.11

[ask] Could you share which normalized growth value was measured for COCCOC(=O)C1=C(C)NC(C)=C(C(=O)OC(C)C)C1c1cccc([N+](=O)[O-])c1 (centres undefined) ?
[reply] 0.93

Query compound follows.
[ask] Query (compound): CC(C)(C)c1csc(NC(=O)c2ccc(Cl)cc2Cl)n1 ; field requested: normalized growth
[reply] 0.953

====

# Test name: chemical genetic growth profiling, strain panel (AID 1159580);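 note: tested at 20 µM; growth read once vehicle control cultures reached saturation at 30 °C; 1 = growth at the plate median or of vehicle wells; lower values mean less growth of the strain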
# Condition summary: S. cerevisiae deletion strains, growth OD, locus YML032C, strain rad52
Hit rate of the full screen: of about 5,500 compounds, about 2,000 (36%) were called active. About 18% were inconclusive and are not listed. No stated cut-off is given here; in the data, active means normalized growth mostly below about 0.91 (no sharp cut-off); inconclusive means no clear call, values can overlap the other calls; inactive means mostly above about 0.92. The list shows a part of the results.
Permitted responses: T for active, F for inactive

Observe how each entry below is paired with its result.
[ask] What is the recorded call for this compound in the test? CSc1ccc2c(c1)C(N1CCN(C)CC1)Cc1ccccc1S2 (stereo unspecified)
[reply] T

[ask] So what was the verdict on CN1CCN2c3ccccc3Cc3ccccc3C2C1 (stereo unspecified) in this test?
[reply] F

[ask] Answer briefly: the call reported for COc1cccc(-c2cc(=O)c3cc(OC)ccc3o2)c1 in this assay.
[reply] F

[ask] # lookup: test call for COc1ccc(-c2coc3cc(O)cc(O)c3c2=O)cc1
[reply] T

[ask] # outcome recorded in this test, key = CCCCCCc1ccc(O)cc1O
[reply] T

Next:
[ask] Called result for CCCCC1C(=O)N(c2ccccc2)N(c2ccccc2)C1=O
[reply] F

[ask] Tell me the recorded outcome of this test for COc1ccc(-c2cc(=O)c3ccccc3o2)cc1 .
[reply] T

[ask] I'd appreciate the recorded outcome for COc1ccc(-c2cc(=O)c3cc(OC)ccc3o2)cc1 from this test.
[reply] F

[ask] Kindly provide the recorded test outcome for the following compound: CCOC(=O)C1C(C=C(C)C)C1(C)C (stereo unspecified)
[reply] F

[ask] Recorded test outcome, item CC(=O)O[C@@H]1CC2C(C)(C)[C@H](O)C[C@H](O)[C@]2(C)C2CC[C@@]3(C)[C@H](c4ccoc4)OC(=O)[C@H]4O[C@]43[C@@]21C (stereo partly specified)
[reply] F

[ask] Recorded test call requested for COc1cccc(-c2cc(=O)c3ccc(OC)cc3o2)c1
[reply] F

[ask] Dear colleague, could you share the recorded outcome for Nc1ccc(C(=O)O)c(O)c1 (tested in a mixture with another compound) when you have a moment?
[reply] F

[ask] Could you kindly confirm the outcome this assay logged for CC1=CCc2c(cc3oc(C)cc(=O)c3c2O)OC1 ?
[reply] F

[ask] Fill in: this test's call for CC(=O)OC1CC2C(C)(C)CCCC2(C)C2CCC3(C)C(c4ccoc4)OC(=O)C4OC43C12C (stereo unspecified) is ___
[reply] F
